B1: FCHO1 (parent)
chain: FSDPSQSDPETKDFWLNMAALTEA

Variants of: B1
ASSAY OVERVIEW: protein stability index of a GFP-peptide fusion (GPS, HEK-293T) (PSI 1-6); higher = more stable;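 also: lentivirally expressed fusions sorted by FACS into six bins by GFP to DsRed ratio, PSI derived from sequencing read proportions per bin multiplied by bin number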
EXPERIMENTAL CONDITIONS: c terminus: a fixed tail appended
The variants listed here are annotated with their protein stability index.
QUANTITY MEASURED: protein stability index

>>> reported_value("A20F")
2.24
>>> reported_value("F1S")
4.74
>>> reported_value("A24W")
2.8
>>> reported_value("A19H")
1.96
>>> reported_value("A24L")
2.67
>>> reported_value("M18Y")
3.59
>>> reported_value("E10Q")
2.54
>>> reported_value("E23I")
1.9
>>> reported_value("D13A")
2.09
>>> reported_value("P9N")
2.63
>>> reported_value("W15T")
4.38
>>> reported_value("D13G")
2.96
>>> reported_value("M18V")
2.56
>>> reported_value("F14V")
4.01
>>> reported_value("A24C")
2.36
>>> reported_value("S5V")
2.54
>>> reported_value("T11L")
2.13
>>> reported_value("F14T")
4.57
>>> reported_value("D3W")
2.72
>>> reported_value("Q6P")
3.16
>>> reported_value("L21G")
2.52
>>> reported_value("T11F")
2.09
